B1: DCAF4 (parent)
chain: PGIDRPGMLCSFRIPGAWSCAWSL

variants of: B1; assay: protein stability index of a GFP-peptide fusion (GPS, HEK-293T) (PSI 1-6); higher = more stable; details: c terminus: a fixed tail appended;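 also: lentivirally expressed fusions sorted by FACS into six bins by GFP to DsRed ratio, PSI derived from sequencing read proportions per bin multiplied by bin number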
Endpoint label: protein stability index
Answers are plain numbers.

Examples from the recorded data:
1) S11Q ... 2.82
2) F12V ... 3.38
3) F12H ... 2.68

Quick one: give me protein stability index for each item below, same order please.
1. P6S
2. W18D

Given back:
1. 2.83
2. 1.76

Quick one: give me protein stability index for each item below, same order please.
1. W18M
2. A17L
3. G16C
4. A21S

Given back:
[2.71, 2.79, 2.39, 2.99]

Quick one: give me protein stability index for each item below, same order please.
1. G16T
2. G16S
3. C10G
4. W18N
5. I14C
6. R13G

Given back:
[3.2, 3.06, 2.12, 2.54, 1.79, 2.33]

Quick one: give me protein stability index for each item below, same order please.
1. P1T
2. W18S
3. C10N
4. R13C

Given back:
1: 3.59; 2: 2.36; 3: 2.65; 4: 2.03

Quick one: give me protein stability index for each item below, same order please.
1. L9S
2. L9N
3. F12K

Given back:
2.32
2.9
1.79
